All figures here come from patent US20250326771A1.

Catalogue of pIC50 values
Molecular target: cIAP2-BIR2 (Homo sapiens (Human))
Sequence (Q13489 158-242): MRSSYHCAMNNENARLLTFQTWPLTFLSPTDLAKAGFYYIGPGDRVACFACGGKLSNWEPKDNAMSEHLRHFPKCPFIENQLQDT
Assay: BIR binding assay (FRET competition), cIAP2 BIR2
pIC50: −log10 of the molar value.

Any idea what pIC50 was measured for C[C@@H]1CN(CC(=O)N2CC(C)(C)c3[nH]c(=O)c(Cc4ccc(F)cc4)cc32)[C@@H](CN2CCN(C(=O)CN(C)CC(=O)N3CCN(C[C@H]4CN[C@H](C)CN4CC(=O)N4CC(C)(C)c5[nH]c(=O)c(Cc6ccc(F)cc6)cc54)[C@H](C)C3)C[C@H]2C)CN1 ?
6.00 to 7.65

Next:
Given C[C@@H]1CN(CC(=O)N2CC(C)(C)c3[nH]c(=O)c(Oc4ccccc4)cc32)[C@@H](CN2CCO[C@H](C(=O)NCc3ccc(CNC(=O)[C@@H]4CN(C[C@H]5CN[C@H](C)CN5CC(=O)N5CC(C)(C)c6[nH]c(=O)c(Oc7ccccc7)cc65)CCO4)cc3)C2)CN1 , state its recorded pIC50.
4.29 to 5.00
